Values were extracted from the supplement of paper PMC4932681.

Test system: ZR-75-1 Tam1
Assay: drug sensitivity score (DSS) (DSS (dimensionless)); higher = more sensitive; extreme values may be limits of the assay
Details: 4-OH-tamoxifen in medium 1 µM; 72 h
Readout kind: drug sensitivity score

Ask: # get_value(readout='drug sensitivity score', item= Nc1ncn([C@H]2C[C@H](O)[C@@H](CO)O2)c(=O)n1 [Decitabine (Dacogen)] )
Reply: 0

Ask: Likewise for CO[C@H]1C[C@@H]2CC[C@@H](C)[C@@](O)(O2)C(=O)C(=O)N2CCCC[C@H]2C(=O)O[C@H]([C@H](C)C[C@@H]2CC[C@@H](O)[C@H](OC)C2)CC(=O)[C@H](C)/C=C(\C)[C@@H](O)[C@@H](OC)C(=O)[C@H](C)C[C@H](C)/C=C/C=C/C=C/1C [Sirolimus (Rapamycin)] ?
Reply: 8.75

Ask: Likewise for CCCS(=O)(=O)Nc1ccc(F)c(C(=O)c2c[nH]c3ncc(-c4ccc(Cl)cc4)cc23)c1F [Vemurafenib (PLX4032)] ?
Reply: 0

Ask: Likewise for CNC(=O)c1ccc(N2C(=S)N(c3ccc(C#N)c(C(F)(F)F)c3)C(=O)C2(C)C)cc1F [Enzalutamide (MDV 3100)] ?
Reply: 0

Ask: Likewise for CC(C)C[C@H](NC(=O)[C@H](CCc1ccccc1)NC(=O)CN1CCOCC1)C(=O)N[C@@H](Cc1ccccc1)C(=O)N[C@@H](CC(C)C)C(=O)[C@@]1(C)CO1 [Carfilzomib] ?
Reply: 12.8

Ask: Likewise for O=C(O)CCCc1ccc(N(CCCl)CCCl)cc1 [Chlorambucil] ?
Reply: 0

Ask: Likewise for Nc1ccn([C@@H]2O[C@H](CO)[C@@H](O)C2(F)F)c(=O)n1 [Gemcitabine] ?
Reply: 0

Ask: Likewise for COc1ccccc1S(=O)(=O)Nc1ccc2c(c1)CN(C)C(=O)N2 [PFI-1] ?
Reply: 1.48

Ask: Likewise for CC(C)c1c(C(=O)Nc2ccccc2)c(-c2ccccc2)c(-c2ccc(F)cc2)n1CC[C@@H](O)C[C@@H](O)CC(=O)O [Atorvastatin] ?
Reply: 3.76

Ask: Likewise for Cc1cc2c(F)c(Oc3ncnn4cc(OC[C@@H](C)O)c(C)c34)ccc2[nH]1 [Brivanib] ?
Reply: 0

Ask: Likewise for CO[C@H]1C[C@@H]2CC[C@@H](C)[C@@](O)(O2)C(=O)C(=O)N2CCCC[C@H]2C(=O)O[C@H]([C@H](C)C[C@@H]2CC[C@@H](OC(=O)C(C)(CO)CO)[C@H](OC)C2)CC(=O)[C@H](C)/C=C(\C)[C@@H](O)[C@@H](OC)C(=O)[C@H](C)C[C@H](C)/C=C/C=C/C=C/1C [Temsirolimus] ?
Reply: 4.48

Ask: Likewise for O=C1CN2Cc3c(ccc(Cl)c3Cl)N=C2N1 [Anagrelide] ?
Reply: 0

Ask: Likewise for O=C(c1cc(Cc2n[nH]c(=O)c3ccccc23)ccc1F)N1CCN(C(=O)C2CC2)CC1 [Olaparib] ?
Reply: 0

Ask: Likewise for CCc1c(C(=O)C(N)=O)c2c(OCC(=O)O)cccc2n1Cc1ccccc1 [Varespladib] ?
Reply: 0

Ask: Likewise for CN(N=O)C(=O)N[C@@H](C=O)[C@@H](O)[C@H](O)[C@H](O)CO [Streptozocin] ?
Reply: 0

Ask: Likewise for Cc1c2oc3c(C)ccc(C(=O)N[C@@H]4C(=O)N[C@H](C(C)C)C(=O)N5CCC[C@H]5C(=O)N(C)CC(=O)N(C)[C@@H](C(C)C)C(=O)O[C@@H]4C)c3nc-2c(C(=O)N[C@@H]2C(=O)N[C@H](C(C)C)C(=O)N3CCC[C@H]3C(=O)N(C)CC(=O)N(C)[C@@H](C(C)C)C(=O)O[C@@H]2C)c(N)c1=O [Dactinomycin] ?
Reply: 19.8

Ask: Likewise for CS(=O)(=O)OCCCCOS(C)(=O)=O [Busulfan] ?
Reply: 0

Ask: Likewise for Cc1ccc(F)c(NC(=O)Nc2ccc(-c3cccc4[nH]nc(N)c34)cc2)c1 [Linifanib (ABT-869)] ?
Reply: 0

Ask: Likewise for C[C@@H]1C=C2C(=O)O[C@@H]3CC[C@H](C1)[C@]23O [Galiellalactone] ?
Reply: 0

Ask: Likewise for Clc1ccc(C(c2ccccc2Cl)C(Cl)Cl)cc1 (configuration not stated) [Mitotane] ?
Reply: 0

Ask: Likewise for CCS(=O)(=O)c1cccc(-c2cc(C(=O)NC3CCN(C)CC3)c(C)c3[nH]c4ncc(C)cc4c23)c1 [TAK-901] ?
Reply: 0

Ask: Likewise for Cn1cc(C2=C(c3cn(C4CCN(Cc5ccccn5)CC4)c4ccccc34)C(=O)NC2=O)c2ccccc21 [Enzastaurin] ?
Reply: 0
